Test system: S. aureus
Test: Antibacterial susceptibility testing, IC90 determination with 10% human serum (STA + 10% HS)
Type: cell-based, Staphylococcus aureus
Conditions: Staphylococcus aureus, human serum at final concentration of 10%, read-out: STA + 10% HS (361.169) IC90
Description: The following bacteria were used: Staphylococcus aureus ATCC 29213, methicillin-resistant Staphylococcus aureus (MRSA) ATCC 700788 and Escherichia coli ATCC 35218. The bacteria used in this study were grown overnight in flasks containing 100 ml Mueller-Hinton broth (Difco cat. nr. 0757-17) in sterile de-ionized water, with shaking, at 37° C. Stocks were store at −70° C. until use. […]
readout_label: IC90 (µg/mL)

Below, 3 molecules whose answers are already recorded.
[[record]]
molecule = "O=C(Nc1ccc(/C=C/C(=O)N2CC3C=C(c4ccccc4)CC3C2)cn1)c1cccnc1 (stereo not drawn) [Cpd. No. 3]"
readout_label = "IC90"
units_label = "µg/mL"
endpoint_result = 0.79

[[record]]
molecule = "Cn1nccc1C1=CC2CN(C(=O)/C=C/c3cnc4c(c3)CN3CCOCC3C(=O)N4)CC2C1 (stereo not drawn) [compound 85]"
readout_label = "IC90"
units_label = "µg/mL"
endpoint_result = 1.62

[[record]]
molecule = "O=C1CNCc2cc(/C=C/C(=O)N3C[C@H]4CC(c5ccccc5)=C[C@H]4C3)cnc2N1 (single isomer, unassigned) [compound 46]"
readout_label = "IC90"
units_label = "µg/mL"
endpoint_result = 0.27


P = CN1CCN2C(=O)c3cc(/C=C/C(=O)N4CC5C=C(c6ccccc6)CC5C4)cnc3NC(=O)C2C1 (stereo not drawn) [compound 82]
Q = O=C1Nc2ncc(/C=C/C(=O)N3CC4C=C(c5ccccc5)CC4C3)cc2Cn2nccc21 (stereo not drawn) [compound 86]
R = O=C1CNC(=O)c2cc(/C=C/C(=O)N3CC4C=C(c5ccccc5)CC4C3)cnc2N1 (stereo not drawn) [compound 66]
Please give the order of these molecules when sorted by IC90, largest value leading. Give the labels in the order specified.
Q, R, P
(Q: 3.81 µg/mL, R: 0.79 µg/mL, P: 0.43 µg/mL)

###

Experiment: Thermodynamic solubility (pH solubility profiling)
Format: physicochemical
Settings: aqueous with cosolvent or surfactant or cyclodextrin, thermodynamic from solid, 10% HP-β-CD buffer pH 4, ambient temperature
readout_label: solubility thermodynamic at 4 days

[[record]]
compound = "O=C1Nc2ncc(/C=C/C(=O)N3CC4C=C(c5ccccc5)CC4C3)cc2CN2CCNCC12 (stereo not shown) [compound 79]"
endpoint_result = "> 5330 µg/mL"

[[record]]
compound = "O=C1Nc2ncc(/C=C/C(=O)N3CC4C=C(c5nccs5)CC4C3)cc2CN2CCOCC12 (stereo not shown) [Cpd. No. 74]"
endpoint_result = "> 1280 µg/mL"


Item O=C1CNCc2cc(/C=C/C(=O)N3CC4C=C(c5nccs5)CC4C3)cnc2N1 (stereo not shown) [compound 48] has what recorded solubility thermodynamic at 4 days?
> 2470 µg/mL

Item O=C(Nc1ccc(/C=C/C(=O)N2CC3C=C(c4ccncc4)CC3C2)cn1)c1cccnc1 (stereo not shown) [compound 9] has what recorded solubility thermodynamic at 4 days?
830 µg/mL

###

Each item that follows carries a reported CC50 at 72 h.
Assay: Cytotoxicity MTT assay (HELAM)
Type: cell-based, Human
Conditions: human, HelaM cells, read-out: HELAM (222.125) CC50

Below, 5 compounds whose answers are already recorded.
[[record]]
compound = "O=C(Nc1ccc(/C=C/C(=O)N2CC3C=C(c4ccccc4)CC3C2)cn1)c1ccccc1 (centres unmarked)"
endpoint_result = "> 10.9 µg/mL"

[[record]]
compound = "Cc1nc(NC(=O)c2cccnc2)ccc1/C=C/C(=O)N1CC2C=C(c3ccccc3)CC2C1 (centres unmarked)"
endpoint_result = "> 11.3 µg/mL"

[[record]]
compound = "COc1cncc(C(=O)Nc2ccc(/C=C/C(=O)N3CC4C=C(c5ccccc5)CC4C3)cn2)c1 (centres unmarked)"
endpoint_result = "> 11.7 µg/mL"

[[record]]
compound = "O=C(Nc1ccc(/C=C/C(=O)N2CC3C=C(c4ccccc4)CC3C2)cn1)c1ccncc1 (centres unmarked)"
endpoint_result = "> 11 µg/mL"

[[record]]
compound = "O=C1Nc2ncc(/C=C/C(=O)N3CC4C=C(c5ccncc5)CC4C3)cc2CN2CCOCC12 (centres unmarked)"
endpoint_result = "> 11.5 µg/mL"


Item O=C(Nc1ncc(/C=C/C(=O)N2CC3C=C(c4ccccc4)CC3C2)cc1CN1CCOCC1)c1cccnc1 (centres unmarked) has what recorded CC50 at 72 h?
12.6 µg/mL

Item N#Cc1cc(NC(=O)c2cccnc2)ncc1/C=C/C(=O)N1CC2C=C(c3ccccc3)CC2C1 (centres unmarked) has what recorded CC50 at 72 h?
> 11.6 µg/mL

Item Nc1ccc(/C=C/C(=O)N2CC3C=C(c4ccccc4)CC3C2)cn1 (centres unmarked) has what recorded CC50 at 72 h?
> 8.32 µg/mL

Item CC(C)C1Oc2cc(/C=C/C(=O)N3CC4C=C(c5ccccc5)CC4C3)cnc2NC1=O (centres unmarked) has what recorded CC50 at 72 h?
> 10.8 µg/mL

Item O=C1CC2CCCCN2Cc2cc(/C=C/C(=O)N3C[C@@H]4CC(c5ccccc5)=C[C@@H]4C3)cnc2N1 (some centres unmarked) has what recorded CC50 at 72 h?
4.4 µg/mL

Item O=C1Nc2ncc(/C=C/C(=O)N3CC4C=C(c5ccccc5)CC4C3)cc2CN2CCOCC12 (centres unmarked) has what recorded CC50 at 72 h?
> 11.5 µg/mL

###

System: Staphylococcus aureus ATCC 29213
Assay: Antibacterial susceptibility testing, IC90 determination (STA)
Type: cell-based
Settings: Staphylococcus aureus, ATCC29213, Staphylococcus aureus ATCC 29213, broth microdilution, resazurin; read-out: STA (361.159) IC90
readout_label: IC90 (µg/mL)

[[record]]
compound = "O=C1Nc2ncc(/C=C/C(=O)N3CC4C=C(c5ccccc5)CC4C3)cc2CO1 (centres unmarked) [compound 51]"
study_system = "Staphylococcus aureus ATCC 29213"
endpoint_result = 0.35


a = CC(=O)N1CCN2Cc3cc(/C=C/C(=O)N4CC5C=C(c6ccncc6)CC5C4)cnc3NC(=O)C2C1 (centres unmarked) [compound 84]
b = O=C1Nc2ncc(/C=C/C(=O)N3CC4C=C(c5ccccc5)CC4C3)cc2C(=O)N2CCNCC12 (centres unmarked) [compound 81]
Form: Entry with minimum IC90 (choose one): a / b In your reply, give the label of the chosen option.
b
(b: 0.45 µg/mL, a: 0.92 µg/mL)

###

Assay: Thermodynamic solubility (pH solubility profiling)
Assay type: physicochemical
Settings: aqueous buffer, thermodynamic from solid, Buffer pH 4, ambient temperature
readout_label: solubility thermodynamic at 4 days (µg/mL)

Below, 2 compounds whose answers are already recorded.
[[record]]
compound = "O=C1Nc2ncc(/C=C/C(=O)N3CC4C=C(c5ccccc5)CC4C3)cc2CN2CCNCC12 (stereo not shown) [compound 79]"
endpoint_result = 150

[[record]]
compound = "O=C1CNCc2cc(/C=C/C(=O)N3CC4C=C(c5nccs5)CC4C3)cnc2N1 (stereo not shown) [compound 48]"
endpoint_result = 440


I = O=C(Nc1ccc(/C=C/C(=O)N2CC3C=C(c4ccncc4)CC3C2)cn1)c1cccnc1 (stereo not shown) [compound 9]
II = O=C1Nc2ncc(/C=C/C(=O)N3CC4C=C(c5nccs5)CC4C3)cc2CN2CCOCC12 (stereo not shown) [Cpd. No. 74]
Form: Entry with minimum solubility thermodynamic at 4 days (choose one): I / II In your reply, give the label of the chosen option.
II
(II: 40 µg/mL, I: 120 µg/mL)

###

Assay: In vivo pharmacokinetic and oral bioavailability in mouse
Parameters: species or system male Swiss mice
Conditions: male, Swiss, plasma, iv, 2.5 mg/kg, 20% HP-β-cyclodextrin, read-out: Half life (t1/2) (converted)
readout_label: half-life (h)
Give your result in h as a bare value.

[[record]]
compound = "O=C1COc2cc(/C=C/C(=O)N3CC4C=C(c5ccccc5)CC4C3)cnc2N1 (stereo not drawn) [compound 37]"
endpoint_result = 3.33

[[record]]
compound = "O=C1CNCc2cc(/C=C/C(=O)N3CC4C=C(c5nccs5)CC4C3)cnc2N1 (stereo not drawn) [compound 48]"
endpoint_result = 1.2


# next compound below
Item O=C1CNCc2cc(/C=C/C(=O)N3CC4C=C(c5ccccc5)CC4C3)cnc2N1 (stereo not drawn) [Cpd. No. 38] has what recorded half-life?
1.7

###

Each item that follows carries a reported solubility thermodynamic at 4 days.
Experiment: Thermodynamic solubility (pH solubility profiling)
Assay type: physicochemical
Settings: pH 2, aqueous with cosolvent or surfactant or cyclodextrin, thermodynamic from solid, 20% HP-β-CD 0.01N HCl, ambient temperature

Below, 2 compounds whose answers are already recorded.
[[record]]
compound = "O=C1Nc2ncc(/C=C/C(=O)N3CC4C=C(c5nccs5)CC4C3)cc2CN2CCOCC12 (stereo not drawn)"
readout_label = "solubility thermodynamic at 4 days"
endpoint_result = "> 2360 µg/mL"

[[record]]
compound = "O=C(Nc1ccc(/C=C/C(=O)N2CC3C=C(c4ccncc4)CC3C2)cn1)c1cccnc1 (stereo not drawn)"
readout_label = "solubility thermodynamic at 4 days"
endpoint_result = "> 4930 µg/mL"


# next compound below
Item O=C1Nc2ncc(/C=C/C(=O)N3CC4C=C(c5ccccc5)CC4C3)cc2CN2CCNCC12 (stereo not drawn) has what recorded solubility thermodynamic at 4 days?
> 4490 µg/mL
